Data origin, for the record: patent US9421237B2

# Assayed Target: 20S proteasome extracted from rat liver, peptidyl-glutamyl-peptide-hydrolyzing (PGPH) enzyme activity (Rattus norvegicus, UniProt P28073+Q9JHW0)
# Construct: 20S proteasome extracted from rat liver
# Experiment: Proteasome inhibition, PGPH activity, fluorescent peptide Z-leu-leu-Glu-βNA
# Settings: rat liver 20S proteasome, 37° C., 1 h
Lab note: cut-off is 4 nM. Strictly less in IC50 is yes. Exactly 4 nM or more is no.

These recorded examples may help you get a feel for the data.
Molecule	Assigned Label
CC(C)C[C@H](NC(=O)[C@H](Cc1ccccc1)NC(=O)[C@H](CC(C)C)NC(=O)c1cnccn1)B(O)O [Compound 6e]	no
CC(C)C[C@H](NC(=O)[C@H](Cc1ccccc1)NC(=O)[C@H](Cc1ccccc1)NC(=O)c1cnccn1)B(O)O [Compound 6a]	no
CC(C)C[C@H](NC(=O)[C@H](CC(C)C)NC(=O)[C@H](Cc1ccc2ccccc2c1)NC(=O)c1cnccn1)B(O)O [Compound 6m]	no

In the record for CC(C)C[C@H](NC(=O)[C@H](Cc1ccccc1)NC(=O)[C@H](Cc1ccc(O)cc1)NC(=O)c1cnccn1)B(O)O [Compound 6d] , is IC50 less than 4 nM?
yes

Next: CC(C)C[C@H](NC(=O)[C@H](Cc1ccccc1)NC(=O)[C@H](Cc1ccc2ccccc2c1)NC(=O)c1cnccn1)B(O)O [Compound 6b]
no

Next: CC(C)C[C@H](NC(=O)[C@H](Cc1ccc2ccccc2c1)NC(=O)[C@H](CC(C)C)NC(=O)c1cnccn1)B(O)O [Compound 6f]
yes

Next: CC(C)C[C@H](NC(=O)[C@H](CC(C)C)NC(=O)[C@H](Cc1ccccc1)NC(=O)c1cnccn1)B(O)O [Compound 6k]
no

Next: CC(C)C[C@H](NC(=O)[C@H](Cc1ccc2ccccc2c1)NC(=O)[C@H](Cc1ccccc1)NC(=O)c1cnccn1)B(O)O [Compound 6g]
yes
